target.of.assay: ~100 representative kinases (Homo sapiens, UniProt P51955)
Construct: Recombinant protein kinase domains with a concentration of 2 μM
Sequence (P51955 whole entry, the tested form may be a part): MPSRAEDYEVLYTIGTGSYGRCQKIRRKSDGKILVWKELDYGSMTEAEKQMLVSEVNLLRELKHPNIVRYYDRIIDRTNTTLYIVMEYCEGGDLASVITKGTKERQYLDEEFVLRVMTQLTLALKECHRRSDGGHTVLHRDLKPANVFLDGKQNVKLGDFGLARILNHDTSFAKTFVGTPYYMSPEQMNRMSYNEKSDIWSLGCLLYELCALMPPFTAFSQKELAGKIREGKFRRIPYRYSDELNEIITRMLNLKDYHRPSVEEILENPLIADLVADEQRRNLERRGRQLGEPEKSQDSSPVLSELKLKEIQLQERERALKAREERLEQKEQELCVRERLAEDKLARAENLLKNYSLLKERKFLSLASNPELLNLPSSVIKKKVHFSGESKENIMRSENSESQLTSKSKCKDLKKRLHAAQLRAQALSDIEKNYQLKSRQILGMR
procedure.details: DSF 100 kinase selectivity screen;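 further: compound tested at 20 µM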
Assay type: binding
condition.set: protein NEK2; average of three replicates
readout.label: dTm (K)

O=C(Nc1cccc(-c2c[nH]c3ncnc(N4CCOCC4)c23)c1)C1(C(=O)Nc2ccc(F)c(Cl)c2)CC1 [Compound 18] :: 1.39
C[C@@H]1CN(c2cc(-c3n[nH]c4ccc(OC5(C)CC5)cc34)ncn2)C[C@H](C)O1 [MLi2] :: -0.21
Cc1ccc(NC(=O)C2(C(=O)Nc3cccc(-c4c[nH]c5ncnc(N6CCOCC6)c45)c3)CC2)cc1 [Compound 14] :: 0.85

(A) CC(C)(C)c1cccc(NC(=O)C2(C(=O)Nc3cccc(-c4c[nH]c5ncnc(N6CCOCC6)c45)c3)CC2)c1 [Compound 22]
(B) COc1cc(NC(=O)C2(C(=O)Nc3cccc(-c4c[nH]c5ncnc(N6CCOCC6)c45)c3)CC2)ccc1F [Compound 21]
For the pair A and B , which member has the lower dTm number? Returns: label corresponding to the selected item.
A
(A: 0.62 K, B: 1.38 K)

(A) Cc1ccc(C(=O)Nc2ccc(CN3CCN(C)CC3)c(C(F)(F)F)c2)cc1C#Cc1c[nH]c2ncnc(N3CCOCC3)c12 [Compound 1]
(B) O=C(Nc1ccccc1)C1(C(=O)Nc2cccc(-c3c[nH]c4ncnc(N5CCOCC5)c34)c2)CC1 [Compound 12]
For the pair A and B , which member has the lower dTm number? Returns: label corresponding to the selected item.
B

====

target.of.assay: ~100 representative kinases (Homo sapiens)
Construct: Recombinant protein kinase domains with a concentration of 2 μM
procedure.details: DSF 100 kinase selectivity screen;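 further: compound tested at 20 µM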
Format: binding
condition.set: protein PIM1; average of three replicates
readout.label: dTm (K)

O=C(Nc1ccc(F)cc1)C1(C(=O)Nc2cccc(-c3c[nH]c4ncnc(N5CCOCC5)c34)c2)CC1 :: 2.13
O=C(Nc1cccc(-c2c[nH]c3ncnc(N4CCOCC4)c23)c1)C1(C(=O)Nc2ccc(F)c(Br)c2)CC1 :: 3.98

(1) CCNc1nc(Nc2cc(F)c(C(=O)N3CCOCC3)cc2OC)ncc1C(F)(F)F
(2) O=C(Nc1ccccc1)C1(C(=O)Nc2cccc(-c3c[nH]c4ncnc(N5CCOCC5)c34)c2)CC1
(3) CCc1ccc(NC(=O)C2(C(=O)Nc3cccc(-c4c[nH]c5ncnc(N6CCOCC6)c45)c3)CC2)cc1
(4) O=C(Nc1cc(F)cc(Br)c1)C1(C(=O)Nc2cccc(-c3c[nH]c4ncnc(N5CCOCC5)c34)c2)CC1
Please list these in order of increasing dTm. Thank you! Thanks in advance for listing the labels in the requested order.
1, 3, 4, 2
(1: 0.44 K, 3: 1.02 K, 4: 1.64 K, 2: 3.25 K)

====

target.of.assay: ~100 representative kinases (Homo sapiens)
Construct: Recombinant protein kinase domains with a concentration of 2 μM
procedure.details: DSF 100 kinase selectivity screen;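 further: compound tested at 20 µM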
Type: binding
condition.set: protein MAPK1; average of three replicates
readout.label: dTm (K)

Solved cases below.
COc1cc2c(Oc3ccc(NC(=O)C4(C(=O)Nc5ccc(F)cc5)CC4)cc3F)ccnc2cc1OCCCN1CCOCC1 [Foretinib, reference compound] :: 0.0844
Cc1ccc(-n2nc(C(C)(C)C)cc2NC(=O)Nc2cccc(-c3c[nH]c4nc(Cl)nc(N5CCOCC5)c34)c2)cc1 :: -0.99
O=C(Nc1cccc(-c2c[nH]c3ncnc(N4CCOCC4)c23)c1)C1(C(=O)Nc2ccc(F)c(Cl)c2)CC1 :: 0.11

(A) O=C(Nc1ccc(F)cc1)C1(C(=O)Nc2cccc(-c3c[nH]c4ncnc(N5CCOCC5)c34)c2)CC1
(B) CC(C)(C)c1cccc(NC(=O)C2(C(=O)Nc3cccc(-c4c[nH]c5ncnc(N6CCOCC6)c45)c3)CC2)c1
(C) Cc1ccc(NC(=O)C2(C(=O)Nc3cccc(-c4c[nH]c5ncnc(N6CCOCC6)c45)c3)CC2)cc1
Ranking field: dTm; order: falling. Thanks in advance for listing the labels in the requested order.
B, C, A
(B: 0.30 K, C: -0.09 K, A: -0.20 K)

====

target.of.assay: ~100 representative kinases (Homo sapiens, UniProt P11362)
Construct: Recombinant protein kinase domains with a concentration of 2 μM
Sequence (P11362 22-822): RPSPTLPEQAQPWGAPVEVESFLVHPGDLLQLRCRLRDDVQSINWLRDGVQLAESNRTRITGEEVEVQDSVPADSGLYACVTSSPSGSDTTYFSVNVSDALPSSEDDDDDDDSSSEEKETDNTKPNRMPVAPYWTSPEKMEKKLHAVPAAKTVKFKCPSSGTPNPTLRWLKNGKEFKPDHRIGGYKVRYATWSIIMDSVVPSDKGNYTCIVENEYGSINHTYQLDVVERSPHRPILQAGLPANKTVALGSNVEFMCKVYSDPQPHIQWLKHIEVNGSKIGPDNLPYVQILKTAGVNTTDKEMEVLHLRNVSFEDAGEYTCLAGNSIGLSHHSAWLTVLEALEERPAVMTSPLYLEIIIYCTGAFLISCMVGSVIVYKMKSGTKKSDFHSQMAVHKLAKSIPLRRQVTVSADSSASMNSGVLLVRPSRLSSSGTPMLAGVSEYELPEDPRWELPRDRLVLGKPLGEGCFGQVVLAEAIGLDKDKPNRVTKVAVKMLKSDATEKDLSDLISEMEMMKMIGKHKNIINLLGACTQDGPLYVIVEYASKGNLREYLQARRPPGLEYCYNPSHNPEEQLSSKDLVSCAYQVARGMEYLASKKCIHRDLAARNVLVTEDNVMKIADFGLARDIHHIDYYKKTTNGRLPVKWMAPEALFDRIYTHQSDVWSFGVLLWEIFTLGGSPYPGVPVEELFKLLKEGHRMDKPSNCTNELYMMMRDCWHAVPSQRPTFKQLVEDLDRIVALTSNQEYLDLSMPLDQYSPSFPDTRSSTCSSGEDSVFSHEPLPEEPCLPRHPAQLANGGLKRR
procedure.details: DSF 100 kinase selectivity screen;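 further: compound tested at 20 µM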
Assay type: binding
condition.set: protein FGFR1; average of three replicates
readout.label: dTm (K)

(I) O=C(Nc1cccc(-c2c[nH]c3ncnc(N4CCOCC4)c23)c1)C1(C(=O)Nc2ccc(F)cc2F)CC1
(II) CCc1ccc(NC(=O)C2(C(=O)Nc3cccc(-c4c[nH]c5ncnc(N6CCOCC6)c45)c3)CC2)cc1
(III) COc1cc(C(=O)N2CCOCC2)c(F)cc1Nc1nc(N(C)C)c2c(Cl)c[nH]c2n1
(IV) Cc1ccc(-n2nc(C(C)(C)C)cc2NC(=O)Nc2cccc(-c3c[nH]c4nc(Cl)nc(N5CCOCC5)c34)c2)cc1
(V) Cc1cc(NC(=O)C2(C(=O)Nc3cccc(-c4c[nH]c5ncnc(N6CCOCC6)c45)c3)CC2)ccc1F
Order the above compounds by increasing dTm. Thanks in advance for listing the labels in the requested order.
III, II, I, IV, V
(III: -0.10 K, II: 0.64 K, I: 1.14 K, IV: 1.65 K, V: 2.46 K)

====

target.of.assay: ~100 representative kinases (Homo sapiens, UniProt Q8IU85)
Construct: Recombinant protein kinase domains with a concentration of 2 μM
Sequence (Q8IU85 whole entry, the tested form may be a part): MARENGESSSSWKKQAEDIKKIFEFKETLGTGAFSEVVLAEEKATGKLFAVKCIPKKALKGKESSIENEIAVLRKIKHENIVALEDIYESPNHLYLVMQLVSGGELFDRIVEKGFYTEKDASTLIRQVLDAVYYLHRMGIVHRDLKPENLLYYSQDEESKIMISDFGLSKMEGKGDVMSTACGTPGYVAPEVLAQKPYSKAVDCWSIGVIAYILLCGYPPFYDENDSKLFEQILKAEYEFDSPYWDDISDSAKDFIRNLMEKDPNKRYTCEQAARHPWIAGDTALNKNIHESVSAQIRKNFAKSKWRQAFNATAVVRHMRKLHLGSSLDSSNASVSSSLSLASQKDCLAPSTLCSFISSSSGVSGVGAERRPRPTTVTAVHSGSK
procedure.details: DSF 100 kinase selectivity screen;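 further: compound tested at 20 µM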
Assay type: binding
condition.set: Protein CAMK1D; average of three replicates
readout.label: dTm (K)

Solved cases below.
O=C(Nc1cccc(-c2c[nH]c3ncnc(N4CCOCC4)c23)c1)C1(C(=O)Nc2cc(Br)c(F)cc2F)CC1 [Compound 25] :: 3.75
CCSc1nc(NC)c2c(-c3cccc(NC(=O)Nc4cc(C(C)(C)C)nn4-c4ccc(C)cc4)c3)c[nH]c2n1 [Compound 32] :: 0.45
CNC(=O)c1cc(Oc2ccc(NC(=O)Nc3cc(C(C)(C)C)nn3-c3ccc4ncccc4c3)c(F)c2)ccn1 [Rebastinib, reference compound] :: 1.21

(1) O=C(Nc1ccc(Cl)cc1)C1(C(=O)Nc2cccc(-c3c[nH]c4ncnc(N5CCOCC5)c34)c2)CC1 [Compound 13]
(2) CC(C)(C)c1cccc(NC(=O)C2(C(=O)Nc3cccc(-c4c[nH]c5ncnc(N6CCOCC6)c45)c3)CC2)c1 [Compound 22]
(3) CC(=O)N1CCN(c2nc(Cl)nc3[nH]cc(-c4cccc(NC(=O)Nc5cc(C(C)(C)C)nn5-c5ccc(C)cc5)c4)c23)CC1 [Compound 31]
(4) Cc1cc(F)ccc1NC(=O)C1(C(=O)Nc2cccc(-c3c[nH]c4ncnc(N5CCOCC5)c34)c2)CC1 [Compound 24]
Please list these in order of increasing dTm. Thank you! Thanks in advance for listing the labels in the requested order.
4, 3, 1, 2
(4: -2.03 K, 3: -0.11 K, 1: 0.67 K, 2: 3.02 K)

====

target.of.assay: ~100 representative kinases (Homo sapiens)
Construct: Recombinant protein kinase domains with a concentration of 2 μM
procedure.details: DSF 100 kinase selectivity screen;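 further: compound tested at 20 µM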
Assay type: binding
condition.set: Protein DYRK1A; average of three replicates
readout.label: dTm (K)

C[C@@H]1CN(c2cc(-c3n[nH]c4ccc(OC5(C)CC5)cc34)ncn2)C[C@H](C)O1 :: 0.53
CCSc1nc(NC)c2c(-c3cccc(NC(=O)Nc4cc(C(C)(C)C)nn4-c4ccc(C)cc4)c3)c[nH]c2n1 :: 0.57
COc1cc(NC(=O)C2(C(=O)Nc3cccc(-c4c[nH]c5ncnc(N6CCOCC6)c45)c3)CC2)ccc1F :: 2.83
COc1cc(C(=O)N2CCOCC2)c(F)cc1Nc1nc(N(C)C)c2c(Cl)c[nH]c2n1 :: 3.71

====

target.of.assay: ~100 representative kinases (Homo sapiens)
Construct: Recombinant protein kinase domains with a concentration of 2 μM
Sequence (Q09013 1-629): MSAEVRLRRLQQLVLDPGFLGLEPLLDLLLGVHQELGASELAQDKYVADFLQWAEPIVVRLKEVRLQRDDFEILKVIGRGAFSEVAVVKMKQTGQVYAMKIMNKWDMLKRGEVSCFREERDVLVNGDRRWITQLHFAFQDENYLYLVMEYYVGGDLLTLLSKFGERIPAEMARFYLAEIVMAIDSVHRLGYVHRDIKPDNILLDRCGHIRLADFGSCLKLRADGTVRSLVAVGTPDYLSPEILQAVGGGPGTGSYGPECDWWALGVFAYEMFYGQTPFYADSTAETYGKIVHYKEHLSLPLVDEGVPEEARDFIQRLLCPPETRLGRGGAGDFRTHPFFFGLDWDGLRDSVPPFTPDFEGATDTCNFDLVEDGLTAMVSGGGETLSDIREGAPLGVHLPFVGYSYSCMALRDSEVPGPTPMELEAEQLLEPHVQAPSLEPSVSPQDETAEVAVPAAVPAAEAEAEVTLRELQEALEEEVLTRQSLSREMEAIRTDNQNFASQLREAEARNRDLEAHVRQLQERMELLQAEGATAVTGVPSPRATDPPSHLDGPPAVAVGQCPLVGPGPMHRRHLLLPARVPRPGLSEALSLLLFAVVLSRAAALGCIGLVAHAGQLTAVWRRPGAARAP
procedure.details: DSF 100 kinase selectivity screen;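 further: compound tested at 20 µM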
Assay type: binding
condition.set: Protein DMPK1; average of three replicates
readout.label: dTm (K)

Cc1cc(F)ccc1NC(=O)C1(C(=O)Nc2cccc(-c3c[nH]c4ncnc(N5CCOCC5)c34)c2)CC1 :: -1.04

(1) CC(C)(C)c1cccc(NC(=O)C2(C(=O)Nc3cccc(-c4c[nH]c5ncnc(N6CCOCC6)c45)c3)CC2)c1
(2) O=C(Nc1cccc(-c2c[nH]c3ncnc(N4CCOCC4)c23)c1)C1(C(=O)Nc2ccc(F)c(Br)c2)CC1
(3) Cc1ccc(-n2nc(C(C)(C)C)cc2NC(=O)Nc2cccc(-c3c[nH]c4ncnc(N5CCOCC5)c34)c2)cc1
Please list these in order of increasing dTm. Thank you! Thanks in advance for listing the labels in the requested order.
3, 1, 2
(3: -2.09 K, 1: -0.60 K, 2: -0.17 K)

(a) O=C(Nc1cccc(-c2c[nH]c3ncnc(N4CCOCC4)c23)c1)c1cccn(-c2ccc(F)cc2)c1=O
(b) O=C(Nc1ccccc1)C1(C(=O)Nc2cccc(-c3c[nH]c4ncnc(N5CCOCC5)c34)c2)CC1
Of the two listed items, which has the higher dTm? First: a Second: b Returns: label corresponding to the selected item.
b
(b: -0.21 K, a: -0.68 K)
